# target desc: Lysine-specific histone demethylase 1A (Homo sapiens)
assay readout: IC50
Reply with the number, then its unit.

1) O=C(Nc1cccc2c1N(Cc1ccc(OC3CCNCC3)cc1)CCC2)c1nc2ccccc2[nH]1
2.31 nM
2) CCn1c(C(=O)Nc2cccc3c2N(Cc2ccc(OC4CCNCC4)cc2)CCC3)cc2ccccc21
0.15 nM
3) Cn1c(C(=O)Nc2cccc3c2N(Cc2ccc(OCC4CCOCC4)cc2)CCC3)cc2sccc21
732 nM
4) O=C(Nc1cccc2c1N(Cc1ccc(OC3CCNCC3)cc1)CCC2)c1nc2ccccc2s1
0.92 nM
5) CN1CCC(COc2ccc(CN3CCCc4cccc(NC(=O)c5cc6sccc6n5C)c43)cc2)CC1
53.5 nM

What the record says about CC(C)n1c(C(=O)Nc2cccc3c2N(Cc2ccc(OC4CCNCC4)cc2)CCC3)cc2ccccc21 : IC50 is 0.18 nM

----------
# Tested on: MCF7
# protocol notes: cells
# protocol conditions: Homo sapiens, MCF7, 72 h
# Description: Antiproliferative activity against human MCF7 cells incubated for 72 hrs by CCK8 assay
assay readout: pIC50
Answers are plain numbers, as −log10 of the molar value.

1) Cn1c(C(=O)Nc2cccc3c2N(Cc2ccc(OC4CCNCC4)cc2)CCC3)cc2ccccc21
5.23

Batch request: pIC50 for each of the following compounds.
1. Cn1c(C(=O)Nc2cccc3c2N(Cc2ccc(OC4CCNCC4)cc2)CCC3)cc2cc(F)ccc21
2. Cn1c(C(=O)Nc2cccc3c2N(Cc2ccc(OCC4CCNCC4)cc2)CCC3)cc2sccc21
3. Cn1c(C(=O)Nc2cccc3c2N(Cc2ccc(OC4CCNCC4)cc2)CCC3)cc2sccc21
4. CCn1c(C(=O)Nc2cccc3c2N(Cc2ccc(OC4CCNCC4)cc2)CCC3)cc2ccccc21
5. O=C(Nc1cccc2c1N(Cc1ccc(OC3CCNCC3)cc1)CCC2)c1cc2ccccc2n1CCF

5.02
5.18
5.24
5.25
5.16

----------
As an illustration, consider measured IC50 for compounds on UniProtKB O60341.

1) Cn1ccc2c(C(=O)Nc3cccc4c3N(Cc3ccc(OC5CCNCC5)cc3)CCC4)cccc21
3.92 nM
2) Cn1c(C(=O)Nc2cccc3c2N(Cc2ccc(OC[C@@H]4CCNC4)cc2)CCC3)cc2sccc21
80.4 nM
3) Cn1c(C(=O)Nc2cccc3c2N(Cc2ccc(OC4CCNCC4)cc2)CCC3)cc2cc(Cl)ccc21
16.3 nM
4) Cn1c(C(=O)Nc2cccc3c2N(Cc2ccc(OCc4ccc(C#N)cc4)cc2)CCC3)cc2sccc21
> 50000 nM

// compound Cc1ccc2c(c1)cc(C(=O)Nc1cccc3c1N(Cc1ccc(OC4CCNCC4)cc1)CCC3)n2C , assay UniProtKB O60341, IC50 value: > 50 nM

----------
# target desc: CYP2C19 (Homo sapiens)
# Sequence (P33261 whole entry): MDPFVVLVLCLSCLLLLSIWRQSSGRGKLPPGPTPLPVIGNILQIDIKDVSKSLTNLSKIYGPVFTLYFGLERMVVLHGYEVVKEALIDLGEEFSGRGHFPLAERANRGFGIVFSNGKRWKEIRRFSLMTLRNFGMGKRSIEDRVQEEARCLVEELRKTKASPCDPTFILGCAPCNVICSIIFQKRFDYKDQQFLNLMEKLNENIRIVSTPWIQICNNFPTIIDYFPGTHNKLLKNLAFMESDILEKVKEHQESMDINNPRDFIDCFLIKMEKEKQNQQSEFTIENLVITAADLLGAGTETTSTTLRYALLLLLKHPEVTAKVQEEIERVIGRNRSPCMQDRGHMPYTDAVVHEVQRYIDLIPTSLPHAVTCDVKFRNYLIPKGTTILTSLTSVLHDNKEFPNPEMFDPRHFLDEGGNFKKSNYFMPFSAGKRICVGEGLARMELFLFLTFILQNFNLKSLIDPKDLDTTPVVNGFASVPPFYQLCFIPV
# protocol notes: Inhibition of CYP2C19 in human liver microsomes at 10 uM using CYP substrate preincubated for 10 mins followed by NADPH generating system addition and measured after 10 mins by LC-MS/MS analysis relative to control
# Assay type: ADME
# protocol conditions: time 20 min
assay readout: inhibition at 10 min, 10 µM (%)
Numbers only, in %.

What the record says about Cn1c(C(=O)Nc2cccc3c2N(Cc2ccc(OC4CCNCC4)cc2)CCC3)cc2cc(F)ccc21 : inhibition at 10 min, 10 µM is 16.1

----------
As an illustration, consider measured pIC50 for molecules on UniProtKB O60341.
Answers are plain numbers, as −log10 of the molar value.

Would you please look over these solved cases?
1. O=C(Nc1cccc2c1N(Cc1ccc(OC3CCNCC3)cc1)CCC2)c1cc2ccccc2n1CC(F)F
9.11
2. Cn1c(C(=O)Nc2cccc3c2N(Cc2ccc(O[C@H]4CC[C@H](N(C)C)CC4)cc2)CCC3)cc2sccc21
7.44
3. CN(C)CCCOc1ccc(CN2CCCc3cccc(NC(=O)c4cc5sccc5n4C)c32)cc1
7.51
4. Cn1c(C(=O)Nc2cccc3c2N(Cc2ccc(OCC4CC[N+](C)(C)CC4)cc2)CCC3)cc2sccc21
7.76
5. O=C(Nc1cccc2c1N(Cc1ccc(OC3CCNCC3)cc1)CCC2)c1ccc2ccccc2n1
7.88
6. CCCn1c(C(=O)Nc2cccc3c2N(Cc2ccc(OC4CCNCC4)cc2)CCC3)cc2ccccc21
8.82
7. Cn1c(C(=O)Nc2cccc3c2N(Cc2ccc(OC4CC[N+](C)(C)CC4)cc2)CCC3)cc2sccc21
8.08
8. O=C(Nc1cccc2c1N(Cc1ccc(OC3CCNCC3)cc1)CCC2)c1cc2ccccc2n1CC1CC1
8.58

Batch request: pIC50 for each of the following molecules.
1. O=C(Nc1cccc2c1N(Cc1ccc(OC3CCNCC3)cc1)CCC2)c1cc2ccccc2[nH]1
2. O=C(Nc1cccc2c1N(Cc1ccc(OC3CCNCC3)cc1)CCC2)c1cnc2ccccc2c1
3. O=C(Nc1cccc2c1N(Cc1ccc(OC3CCNCC3)cc1)CCC2)c1cc2ccccc2n1CCCl
4. O=C(Nc1cccc2c1N(Cc1ccc(OC3CCNCC3)cc1)CCC2)c1cc2ccccc2s1

1. 8.55
2. 7.73
3. 9.82
4. 9.03

What the record says about Cc1ccncc1C(=O)Nc1cccc2c1N(Cc1ccc(OC3CCNCC3)cc1)CCC2 : pIC50 is 8.81
